target_desc: T1, LRP1 CR3-5 (human)
T1 construct: range 852-973; also called L1 CR3-5
measurement_protocol: solid-phase assay; OD at the highest ligand concentration as percent of the highest OD of all ligands
Provide the recorded % max for the entries that follow.
Express the result in % but write the number alone.

QUERY: Note down % max recorded for MegaRAP1 d3 revertant K217E (ligand, MegaRAP1 d3 with position 217 reverted to wild type; not shown: N-terminal hexahistidine and S-peptide tags of pET30(+)a) LDRLRRVSHQGYTTEAEFEEPRVIDLWDLAQSANLTDKELEAFREELKYFKAKIEAHNHYQKQLEIAHEELRHAESVGDGERVSRSREKHALLEGRTKELGYTVKKHLQDLSGRISRAR
RESULT: 2

QUERY: Note down % max recorded for MegaRAP1 d3 revertant Y249H (ligand, MegaRAP1 d3 with position 249 reverted to wild type; not shown: N-terminal hexahistidine and S-peptide tags of pET30(+)a) LDRLRRVSHQGYTTEAKFEEPRVIDLWDLAQSANLTDKELEAFREELKHFKAKIEAHNHYQKQLEIAHEELRHAESVGDGERVSRSREKHALLEGRTKELGYTVKKHLQDLSGRISRAR
RESULT: 2
